Let's look at some sequences and their measured total protein half-life in vivo.
# protocolDetails: total protein half-life in vivo (active degradation + dilution); higher = more stable protein
# conditionDetails: wild type E. coli NCM3722; growth: P-lim chemostat; doubling time 12 h

entrySequence: MGNSDRKPGLIKRLWKWWRTPSRLALGTLLLIGFVGGIVFWGGFNTGMEKANTEEFCISCHEMRNTVYQEYMDSVHYNNRSGVRATCPDCHVPHEFVPKMIRKLKASKELYGKIFGVIDTPQKFEAHRLTMAQNEWRRMKDNNSQECRNCHNFEYMDTTAQKSVAAKMHDQAVKDGQTCIDCHKGIAHKLPDMREVEPGF [P0ABL5]
scaleUnit: h
total protein half-life in vivo: 8.81
--
entrySequence: MPELPEVETSRRGIEPHLVGATILHAVVRNGRLRWPVSEEIYRLSDQPVLSVQRRAKYLLLELPEGWIIIHLGMSGSLRILPEELPPEKHDHVDLVMSNGKVLRYTDPRRFGAWLWTKELEGHNVLTHLGPEPLSDDFNGEYLHQKCAKKKTAIKPWLMDNKLVVGVGNIYASESLFAAGIHPDRLASSLSLAECELLARVIKAVLLRSIEQGGTTLKDFLQSDGKPGYFAQELQVYGRKGEPCRVCGTPIVATKHAQRATFYCRQCQK
scaleUnit: h
total protein half-life in vivo: 14.2

----------
# protocolDetails: total protein half-life in vivo (active degradation + dilution); higher = more stable protein
# conditionDetails: wild type E. coli NCM3722; growth: P-lim chemostat; doubling time 6 h
measurementType: total protein half-life in vivo (h)

entrySequence: MKTPLVTREGYEKLKQELNYLWREERPEVTKKVTWAASLGDRSENADYQYNKKRLREIDRRVRYLTKCLENLKIVDYSPQQEGKVFFGAWVEIENDDGVTHRFRIVGYDEIFGRKDYISIDSPMARALLKKEVGDLAVVNTPAGEASWYVNAIEYVKP
scaleUnit: h
number: 4.65
//
entrySequence: MFDFASYHRAATLADAINLLADNPQAKLLAGGTDVLIQLHHHNDRYRHIVDIHNLAELRGITLAEDGSLRIGSATTFTQLIEDPITQRHLPALCAAATSIAGPQIRNVATYGGNICNGATSADSATPTLIYDAKLEIHSPRGVRFVPINGFHTGPGKVSLEHDEILVAFHFPPQPKEHAGSAHFKYAMRDAMDISTIGCAAHCRLDNGNFSELRLAFGVAAPTPIRCQHAEQTAQNAPLNLQTLEAISESVLQDVAPRSSWRASKEFRLHLIQTMTKKVISEAVAAAGGKLQ
scaleUnit: h
number: 4.56
//
entrySequence: MKLTTHHLRTGAALLLAGILLAGCDQSSSDAKHIKVGVINGAEQDVAEVAKKVAKEKYGLDVELVGFSGSLLPNDATNHGELDANVFQHRPFLEQDNQAHGYKLVAVGNTFVFPMAGYSKKIKTVAQIKEGATVAIPNDPTNLGRALLLLQKEKLITLKEGKGLLPTALDITDNPRHLQIMELEGAQLPRVLDDPKVDVAIISTTYIQQTGLSPVHDSVFIEDKNSPYVNILVAREDNKNAENVKEFLQSYQSPEVAKAAETIFNGGAVPGW
scaleUnit: h
number: 5.38
//
entrySequence: MRYSKLTMLIPCALLLSACTTVTPAYKDNGTRSGPCVEGGPDNVAQQFYDYRILHRSNDITALRPYLSDKLATLLSDASRDNNHRELLTNDPFSSRTTLPDSAHVASASTIPNRDARNIPLRVDLKQGDQGWQDEVLMIQEGQCWVIDDVRYLGGSVHATAGTLRQSIENR
scaleUnit: h
number: 6.22
//
entrySequence: MMKNILAIQSHVVYGHAGNSAAEFPMRRLGANVWPLNTVQFSNHTQYGKWTGCVMPPSHLTEIVQGIAAIDKLHTCDAVLSGYLGSAEQGEHILGIVRQVKAANPQAKYFCDPVMGHPEKGCIVAPGVAEFHVRHGLPASDIIAPNLVELEILCEHAVNNVEEAVLAARELIAQGPQIVLVKHLARAGYSRDRFEMLLVTADEAWHISRPLVDFGMRQPVGVGDVTSGLLLVKLLQGATLQEALEHVTAAVYEIMVTTKAMQEYELQVVAAQDRIAKPEHYFSATKL
scaleUnit: h
number: 4.49
//
entrySequence: MNYEIKQEEKRTVAGFHLVGPWEQTVKKGFEQLMMWVDSKNIVPKEWVAVYYDNPDETPAEKLRCDTVVTVPGYFTLPENSEGVILTEITGGQYAVAVARVVGDDFAKPWYQFFNSLLQDSAYEMLPKPCFEVYLNNGAEDGYWDIEMYVAVQPKHH
scaleUnit: h
number: 2.6
//
entrySequence: MIREAQRSELPAILELWLESTTWGHPFIKANYWRDCIPLVRDAYLANAQNWVWEEDGKLLGFVSIMEGRFLAAMFVAPKAVRRGIGKALMQYVQQRHPHLMLEVYQKNQPAINFYQAQGFHIVDCAWQDETQLPTWIMSWPVVQTL
scaleUnit: h
number: 4.08
//
entrySequence: MNTLLLLAALSSQITFNTTQQGDVYTIIPEVTLTQSCLCRVQILSLREGSSGQSQTKQEKTLSLPANQPIALTKLSLNISPDDRVKIVVTVSDGQSLHLSQQWPPSSEKS
scaleUnit: h
number: 4.19
//
entrySequence: MSETAKKVIVGMSGGVDSSVSAWLLQQQGYQVEGLFMKNWEEDDGEEYCTAAADLADAQAVCDKLGIELHTVNFAAEYWDNVFELFLAEYKAGRTPNPDILCNKEIKFKAFLEFAAEDLGADYIATGHYVRRADVDGKSRLLRGLDSNKDQSYFLYTLSHEQIAQSLFPVGELEKPQVRKIAEDLGLVTAKKKDSTGICFIGERKFREFLGRYLPAQPGKIITVDGDEIGEHQGLMYHTLGQRKGLGIGGTKEGTEEPWYVVDKDVENNILVVAQGHEHPRLMSVGLIAQQLHWVDREPFTGTMRCTVKTRYRQTDIPCTVKALDDDRIEVIFDEPVAAVTPGQSAVFYNGEVCLGGGIIEQRLPLPV
scaleUnit: h
number: 5.5
//
entrySequence: MIDYTAAGFTLLQGAHLYAPEDRGICDVLVANGKIIAVASNIPSDIVPNCTVVDLSGQILCPGFIDQHVHLIGGGGEAGPTTRTPEVALSRLTEAGVTSVVGLLGTDSISRHPESLLAKTRALNEEGISAWMLTGAYHVPSRTITGSVEKDVAIIDRVIGVKCAISDHRSAAPDVYHLANMAAESRVGGLLGGKPGVTVFHMGDSKKALQPIYDLLENCDVPISKLLPTHVNRNVPLFEQALEFARKGGTIDITSSIDEPVAPAEGIARAVQAGIPLARVTLSSDGNGSQPFFDDEGNLTHIGVAGFETLLETVQVLVKDYDFSISDALRPLTSSVAGFLNLTGKGEILPGNDADLLVMTPELRIEQVYARGKLMVKDGKACVKGTFETA
scaleUnit: h
number: 6.11
//
entrySequence: MTSLVSLENVSVSFGQRRVLSDVSLELKPGKILTLLGPNGAGKSTLVRVVLGLVTPDEGVIKRNGKLRIGYVPQKLYLDTTLPLTVNRFLRLRPGTHKEDILPALKRVQAGHLINAPMQKLSGGETQRVLLARALLNRPQLLVLDEPTQGVDVNGQVALYDLIDQLRRELDCGVLMVSHDLHLVMAKTDEVLCLNHHICCSGTPEVVSLHPEFISMFGPRGAEQLGIYRHHHNHRHDLQGRIVLRRGNDRS [P0A9X1]
scaleUnit: h
number: 4.12
//
entrySequence: MQKRAIYPGTFDPITNGHIDIVTRATQMFDHVILAIAASPSKKPMFTLEERVALAQQATAHLGNVEVVGFSDLMANFARNQHATVLIRGLRAVADFEYEMQLAHMNRHLMPELESVFLMPSKEWSFISSSLVKEVARHQGDVTHFLPENVHQALMAKLA [P0A6I6]
scaleUnit: h
number: 6.14

----------
# protocolDetails: total protein half-life in vivo (active degradation + dilution); higher = more stable protein
# conditionDetails: E. coli NCM3722 delta-lon; growth: N-lim chemostat; doubling time 6 h
measurementType: total protein half-life in vivo (h)

entrySequence: MIKLSNITKVFHQGTRTIQALNNVSLHVPAGQIYGVIGASGAGKSTLIRCVNLLERPTEGSVLVDGQELTTLSESELTKARRQIGMIFQHFNLLSSRTVFGNVALPLELDNTPKDEVKRRVTELLSLVGLGDKHDSYPSNLSGGQKQRVAIARALASNPKVLLCDEATSALDPATTRSILELLKDINRRLGLTILLITHEMDVVKRICDCVAVISNGELIEQDTVSEVFSHPKTPLAQKFIQSTLHLDIPEDYQERLQAEPFTDCVPMLRLEFTGQSVDAPLLSETARRFNVNNNIISAQMDYAGGVKFGIMLTEMHGTQQDTQAAIAWLQEHHVKVEVLGYV
number: 6.66

entrySequence: MKPRQRQAAILEYLQKQGKCSVEELAQYFDTTGTTIRKDLVILEHAGTVIRTYGGVVLNKEESDPPIDHKTLINTHKKELIAEAAVSFIHDGDSIILDAGSTVLQMVPLLSRFNNITVMTNSLHIVNALSELDNEQTILMPGGTFRKKSASFHGQLAENAFEHFTFDKLFMGTDGIDLNAGVTTFNEVYTVSKAMCNAAREVILMADSSKFGRKSPNVVCSLESVDKLITDAGIDPAFRQALEEKGIDVIITGESNE
number: 6.11

entrySequence: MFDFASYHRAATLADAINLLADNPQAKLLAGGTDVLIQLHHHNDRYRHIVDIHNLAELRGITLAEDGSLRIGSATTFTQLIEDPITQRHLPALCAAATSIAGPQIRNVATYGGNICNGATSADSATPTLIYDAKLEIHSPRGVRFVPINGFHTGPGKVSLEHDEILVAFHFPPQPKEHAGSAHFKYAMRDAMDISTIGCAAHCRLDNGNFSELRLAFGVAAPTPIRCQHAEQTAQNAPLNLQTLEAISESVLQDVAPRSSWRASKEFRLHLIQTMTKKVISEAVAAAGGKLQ
number: 3.61
